# Target or system: Peroxisome proliferator-activated receptor delta (Homo sapiens, UniProt Q03181)
# Sequence (Q03181 whole entry, the tested form may be a part): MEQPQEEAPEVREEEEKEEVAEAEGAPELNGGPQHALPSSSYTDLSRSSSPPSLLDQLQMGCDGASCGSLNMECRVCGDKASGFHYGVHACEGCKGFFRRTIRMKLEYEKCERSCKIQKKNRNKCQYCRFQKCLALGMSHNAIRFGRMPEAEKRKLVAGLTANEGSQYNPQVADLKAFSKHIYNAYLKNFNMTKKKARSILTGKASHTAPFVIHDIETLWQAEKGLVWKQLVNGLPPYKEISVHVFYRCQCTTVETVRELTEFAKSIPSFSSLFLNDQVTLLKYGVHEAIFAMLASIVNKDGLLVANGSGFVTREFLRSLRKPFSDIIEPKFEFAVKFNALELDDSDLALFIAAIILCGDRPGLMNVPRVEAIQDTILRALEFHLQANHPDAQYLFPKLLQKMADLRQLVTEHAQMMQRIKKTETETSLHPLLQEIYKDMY
# Procedure summary: Partial agonist activity at N-terminal Gal4-fused human PPARdelta LBD transfected in human HepG2 cells assessed as receptor transactivation incubated for 20 hrs by luciferase based luminometric assay
Measured attribute: EC50 (nM)
Express it in nM; write the number only.

Ask: # lookup: EC50 of `CCCc1c(OCCCOc2ccc(OCC(=O)O)cc2)ccc(C(C)=O)c1O`
Result: 1600

====

# Target or system: Peroxisome proliferator-activated receptor alpha (Homo sapiens)
# Sequence (Q07869 whole entry, the tested form may be a part): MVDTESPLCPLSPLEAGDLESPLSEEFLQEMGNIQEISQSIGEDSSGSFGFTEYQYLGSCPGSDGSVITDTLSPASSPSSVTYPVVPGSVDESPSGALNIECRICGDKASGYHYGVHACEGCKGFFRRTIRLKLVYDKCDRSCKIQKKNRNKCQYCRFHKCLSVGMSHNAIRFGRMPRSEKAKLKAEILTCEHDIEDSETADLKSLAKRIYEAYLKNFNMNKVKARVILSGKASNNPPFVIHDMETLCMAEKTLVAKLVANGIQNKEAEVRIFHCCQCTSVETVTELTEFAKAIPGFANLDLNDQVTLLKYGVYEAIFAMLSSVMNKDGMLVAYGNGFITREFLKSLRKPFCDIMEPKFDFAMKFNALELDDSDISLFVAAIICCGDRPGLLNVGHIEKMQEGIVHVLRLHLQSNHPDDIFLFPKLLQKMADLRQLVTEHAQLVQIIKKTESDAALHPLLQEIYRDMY
# Procedure summary: Partial agonist activity at N-terminal Gal4-fused human PPARalpha LBD transfected in human HepG2 cells assessed as receptor transactivation incubated for 20 hrs by luciferase based luminometric assay
Measured attribute: log10(EC50) (log10 of the value in µM)
The common logarithm of EC50 in µM is what is listed.

Study these solved cases before continuing.
CCC(Oc1ccc(-c2cccc3ccccc23)cc1)C(=O)O (racemic)	-0.34
C[C@H](Oc1ccc(-c2cccc3ccccc23)cc1)C(=O)O	0.26
CC[C@H](Oc1ccc(-c2cccc3ccccc23)cc1)C(=O)O.NC1CCCCC1	-0.74
CC[C@@H](Oc1ccc(-c2cccc3ccccc23)cc1)C(=O)O.NC1CCCCC1	0.15

Ask: Would you mind telling me what log10(EC50) value was observed for `C[C@@H](Oc1ccc(-c2cccc3ccccc23)cc1)C(=O)O` ?
Result: 0.36

====

// reported pEC50 per item
# Target or system: Peroxisome proliferator-activated receptor gamma (Homo sapiens)
# Sequence (P37231 whole entry, the tested form may be a part): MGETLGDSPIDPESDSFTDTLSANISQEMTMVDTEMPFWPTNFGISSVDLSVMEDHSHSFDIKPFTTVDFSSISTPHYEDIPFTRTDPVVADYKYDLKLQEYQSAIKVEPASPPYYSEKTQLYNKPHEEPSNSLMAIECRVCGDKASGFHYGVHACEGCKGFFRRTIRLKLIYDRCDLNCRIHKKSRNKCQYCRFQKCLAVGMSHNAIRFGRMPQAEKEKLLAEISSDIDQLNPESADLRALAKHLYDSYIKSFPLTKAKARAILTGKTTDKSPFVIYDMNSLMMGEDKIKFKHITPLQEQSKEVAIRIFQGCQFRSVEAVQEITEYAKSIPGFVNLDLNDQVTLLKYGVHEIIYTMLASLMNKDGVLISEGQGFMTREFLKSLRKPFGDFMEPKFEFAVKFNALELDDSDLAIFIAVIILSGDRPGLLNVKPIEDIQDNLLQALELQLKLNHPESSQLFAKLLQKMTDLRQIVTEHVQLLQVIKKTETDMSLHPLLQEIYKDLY
# Procedure summary: Partial agonist activity at N-terminal Gal4-fused human PPARgamma LBD transfected in human HepG2 cells assessed as receptor transactivation incubated for 20 hrs by luciferase based luminometric assay
// pEC50 is dimensionless: -log10 of concentration (M)

Observe how each entry below is paired with its result.
CC[C@@H](Oc1ccc(-c2cccc3ccccc23)cc1)C(=O)O.NC1CCCCC1	5.14
CCC(Oc1ccc(-c2cccc3ccccc23)cc1)C(=O)O (racemic)	5.00

With those in mind, consider the next compound.
Ask: # pEC50 lookup, item `CC[C@H](Oc1ccc(-c2cccc3ccccc23)cc1)C(=O)O.NC1CCCCC1`
Result: 4.96

This collection of values is drawn from ChEMBL document CHEMBL5608169.
